Below, each entry is listed alongside its reported GFP response, % of DMSO.
Assay: modulators of CIT2-GFP expression in yeast, confirmation, S. cerevisiae, GFP fusion, cherry picks, mother/daughter gates (AID 2274)
Conditions: S. cerevisiae CIT2-GFP strain, flow cytometry, 3 h; at 10 µM; hits give high values
quantity: GFP response, % of DMSO (%)

>  <compound>
CN1C(=O)NC(=O)/C(=C\C=C\c2ccccc2[N+](=O)[O-])C1=O

>  <value.measured>
84.7

$$$$
>  <compound>
C[C@H](O)[C@H]1CC[C@H]2[C@@H]3CCC4=CC(=O)CC[C@]4(C)[C@H]3CC[C@]12C

>  <value.measured>
96.5

$$$$
>  <compound>
O=C1NC(=O)N(Cc2ccco2)C(=O)/C1=C/c1ccc(-c2cccc([N+](=O)[O-])c2)o1

>  <value.measured>
93

$$$$
>  <compound>
CN1CCN(c2ccc([N+](=O)[O-])c(Sc3ccccn3)c2)CC1

>  <value.measured>
103

$$$$
>  <compound>
CCC(C)N1C(=O)/C(=C\c2cnc(N(C)C)nc2)C(=O)NC1=S (centres undefined)

>  <value.measured>
106

$$$$
>  <compound>
O=C1NC(=S)N(c2ccccc2)C(=O)/C1=C/c1ccco1

>  <value.measured>
84.8

$$$$
>  <compound>
O=C1NC(=O)N(c2ccccc2)C(=O)/C1=C/c1ccc(Sc2ccccc2)o1

>  <value.measured>
89.2

$$$$
>  <compound>
CCN(CC)c1ccc(/C=C/[N+](=O)[O-])cc1

>  <value.measured>
104

$$$$
>  <compound>
C#CCOc1cc(C2C3=C(COC3=O)Nc3cc4c(cc32)OCO4)ccc1OC (centres undefined)

>  <value.measured>
107

$$$$
>  <compound>
O=C1NC(=S)NC(=O)C1=Cc1ccc2c(c1)CCN2CCCCl

>  <value.measured>
85.7

$$$$
>  <compound>
COc1cc(/C=C/C(=O)c2c(O)n(CCc3ccccc3)c(=O)[nH]c2=O)ccc1O

>  <value.measured>
115

$$$$
>  <compound>
N#CC(C#N)=Cc1ccc(N2CCCC2)cc1

>  <value.measured>
105

$$$$
>  <compound>
Cc1cccn2c(NCC3CCCO3)c(C(C)C)nc12 (centres undefined)

>  <value.measured>
106

$$$$
>  <compound>
O=C1NC(=O)N(c2ccccc2)C(=O)/C1=C\c1ccc([N+](=O)[O-])o1

>  <value.measured>
103

$$$$
